Reported endpoint: melting point (°C)
Report only the number, with the unit °C understood.

Some molecules with known melting point results, for comparison:
| Molecule | melting point [°C] |
| --- | --- |
| CCNc1nc(Cl)nc(NC(C)(C)C)n1 | 178 |
| COP(=S)(OC)Oc1ccc(Sc2ccc(OP(=S)(OC)OC)cc2)cc1 | 30 |
| CC(=O)OCOc1ccccc1C(N)=O | 92.5 |
| CCCCC(=O)c1ccccc1 | -9.4 |
| Nc1c(Br)cc([N+](=O)[O-])cc1Br | 207 |

Reported melting point ( N#CC1=C(C#N)C(=O)C(Cl)=C(Cl)C1=O ) = 214

// melting point lookup, molecule = COC(=O)C(C)C , result: -84.7

The molecule identified as C=CCOc1ccc(CC(=O)O)cc1Cl registered its melting point at 92.5

get_value(item= CCP(=O)(c1ccccc1)c1ccccc1 , readout=melting point) returns 122

For CCCC(C)C1(CC)C(=O)N=C(O)NC1=O (configuration not stated) the molecule record lists melting point as 130

What the record says about Nc1ccc(-c2ccccc2)cc1 : melting point is 53.5

Entry Cn1ccc(=O)c2ccccc21 , melting point reported as 152

The molecule identified as O=C(O)CCCc1ccc(N(CCCl)CCCl)cc1 registered its melting point at 65

melting point recorded for this molecule, C=C(F)F , is -144

Record FCc1ccccc1 . Reported melting point: -35

Lookup result for C=C(C)CCCC ; measured melting point: -103

The reported melting point of the molecule Brc1cccc(Br)c1Br was 87.5

Looking up COc1c(C(C)(C)C)cc([N+](=O)[O-])c(C)c1[N+](=O)[O-] , I found its melting point recorded as 85

What the record says about CCCc1ssc(=S)c1C : melting point is 49

// melting point lookup, molecule = CC(O)CNCC(C)O (configuration not stated) , result: 44.5

Notebook: Cc1cccc(C(C)C)c1O , melting point read as -14.5

Entry under test: O=S1(=O)CCOCC1 . Its melting point was 132

# credit: the OPERA property sets (Mansouri et al. 2018)
